System: HCT-15
Assay: NCI-60 SRB screen: colon cancer HCT-15
Type: cell-based, human
Conditions: Homo sapiens; HCT-15; five concentrations, 48 h, SRB; read-out: GI50
Give measured GI50 for each item. Keep answers brief.
Answers are plain numbers, in µM.

These recorded examples may help you get a feel for the data.
• C=C(C)[C@@H]1CC[C@]2(C(=O)NCCCN)CC[C@]3(C)[C@H](CC[C@@H]4[C@@]5(C)CCC(=O)C(C)(C)[C@@H]5CC[C@]43C)[C@@H]12 = 21.7
• C=C(C)[C@@H]1CC[C@]2(C(=O)OC)CC[C@]3(C)[C@H](CC[C@@H]4[C@@]5(C)CCC(=NOCCC(=NOCCC#N)NCCC#N)C(C)(C)[C@@H]5CC[C@]43C)[C@@H]12 = 5.77
• C=C(C)[C@@H]1CC[C@]2(C(=O)NCCNCCNCCN)CC[C@]3(C)[C@H](CC[C@@H]4[C@@]5(C)CC[C@H](O)C(C)(C)[C@@H]5CC[C@]43C)[C@@H]12 = 11.5
• C=C(C)[C@@H]1CC[C@]2(C(=O)NCCNCCNCCN)CC[C@]3(C)[C@H](CC[C@@H]4[C@@]5(C)CCC(=O)C(C)(C)[C@@H]5CC[C@]43C)[C@@H]12 = 7.65

// moving on: another record for GI50
Q. Given the compound CC(=O)OCC12CCC(C(C)C(N)=O)C1C1CCC3C4(C)CCC(OC(C)=O)C(C)(C)C4CCC3(C)C1(C)CC2 (centres unmarked) , what is its reported GI50?
A. 4.04

----------
Tested on: SK-MEL-5
Assay: NCI-60 SRB screen: melanoma SK-MEL-5
Type: cell-based, human
Settings: Homo sapiens; SK-MEL-5; five concentrations, 48 h, SRB; read-out: GI50
Endpoint label: GI50 (µM)
Numbers only, in µM.

* C=C(C)[C@@H]1CC[C@]2(C(=O)NCCNCCNCCN)CC[C@]3(C)[C@H](CC[C@@H]4[C@@]5(C)CC[C@H](O)C(C)(C)[C@@H]5CC[C@]43C)[C@@H]12 | 11.1
* C=C(C)[C@@H]1CC[C@]2(C(=O)OC)CC[C@]3(C)[C@H](CC[C@@H]4[C@@]5(C)CCC(=NOCCC(=NOCCC#N)NCCC#N)C(C)(C)[C@@H]5CC[C@]43C)[C@@H]12 | 3.02
* C=C(C)[C@@H]1CC[C@]2(C(=O)NCCCN)CC[C@]3(C)[C@H](CC[C@@H]4[C@@]5(C)CCC(=O)C(C)(C)[C@@H]5CC[C@]43C)[C@@H]12 | 19.4
* CC(=O)OCC12CCC(C(C)C(N)=O)C1C1CCC3C4(C)CCC(OC(C)=O)C(C)(C)C4CCC3(C)C1(C)CC2 (centres unmarked) | 3.8

// moving on: another record for GI50
Q. Given the compound C=C(C)[C@@H]1CC[C@]2(C(=O)NCCNCCNCCN)CC[C@]3(C)[C@H](CC[C@@H]4[C@@]5(C)CCC(=O)C(C)(C)[C@@H]5CC[C@]43C)[C@@H]12 , what is its reported GI50?
A. 6.98

----------
Give measured pIC50 for each item. Keep answers brief.
Target: Yeast α-Glucosidase
Assay: Yeast α-glucosidase activity assay
Details: pH 6.8, 37 °C, p-nitrophenyl-α-D-glucopyranoside 1 mM; read-out: Yeast α-Glucosidase, IC50 ± SE
One number for each entry, as −log10 of the molar value.

* C=C(C)[C@@H]1CC[C@]2(COCCCN)CC[C@]3(C)[C@H](CC[C@@H]4[C@@]5(C)CC[C@H](OCCCN)C(C)(C)[C@@H]5CC[C@]43C)[C@@H]12 [Compound 18] | 5.24

// moving on: another record for pIC50
Q. Given the compound C=C(C)[C@@H]1CC[C@]2(C(=O)OC)CC[C@]3(C)[C@H](CC[C@@H]4[C@@]5(C)C/C(=C/NC(N)=O)C(=O)C(C)(C)[C@@H]5CC[C@]43C)[C@@H]12 [Compound 25] , what is its reported pIC50?
A. 4.27
